B1: Haloalkane dehalogenase, D4Z2G1 (parent)
chain: MSLGAKPFGEKKFIEIKGRRMAYIDEGTGDPILFQHGNPTSSYLWRNIMPHCAGLGRLIACDLIGMGDSDKLDPSGPERYAYAEHRDYLDALWEALDLGDRVVLVVHDWGSALGFDWARRHRERVQGIAYMEAIAMPIEWADFPEQDRDLFQAFRSQAGEELVLQDNVFVEQVLPGLILRPLSEAEMAAYREPFLAAGEARRPTLSWPRQIPIAGTPADVVAIARDYAGWLSESPIPKLFINAEPGALTTGRMRDFCRTWPNQTEITVAGAHFIQEDSPDEIGAAIAAFVRRLRPA

# Variants of: B1
# condition parameters: Sphingobium indicum (strain DSM 16413 / CCM 7287 / MTCC 6362 / UT26 / NBRC 101211 / UT26S); pH 7.5; Thermal; fluorescence; Na-Hepes 50 mM; reversible: no; structure 1MJ5; whole UniProt chain shown
parameter: Tm (°C)
Numeric only. Scale: °C

Example cases with answers are listed next.
A133V	51
E233T	51.5
R254L	49.5
V106C G114C	50
D166K	53.5
E26V	51

IN: For the variant `E233H` , give its reported Tm.
OUT: 51.5

IN: Give the reported Tm for this variant. `A218E`
OUT: 51

IN: Provide measured Tm value, entry: `D87K`
OUT: 50

IN: Give a short answer stating reported Tm for `V106L` .
OUT: 50.5

IN: Give Tm for `T264L`
OUT: 50.5

IN: Identify the reported Tm for the following entry. S183C E186C
OUT: 47

IN: Give Tm for the following variant: `C61P`
OUT: 50.5

IN: Report Tm for `D68L`
OUT: 49.5

IN: Indicate the recorded Tm value for this variant: `D97R`
OUT: 51

IN: Please give the documented Tm of `D30H`
OUT: 51

IN: Read off the recorded Tm for `E15T`
OUT: 52

IN: // fetch Tm given entry `E139Q`
OUT: 58.5

IN: Fill in reported Tm for this entry: `A189F`
OUT: 51.5
